METHOD NOTES: yeast display, Sf9 membrane polyspecificity reagent, FACS + sequencing; frameworks hold sequencing errors
QUANTITY: polyreactivity (PSR sort gate)

SEQUENCE INPUT	QUANTITY	RESULT VALUE
QVQLVESGGGLVQAGGSLRLSCAAYGSTFFLYAMGWYRQAPGKVRELVAAITYTDGDTYYADSVKGRFTISRDNAKHTVYLQMNSLKPEDTAVYYCNAGGDEPVYGSGYDYWGQGTQVNVSS	polyreactivity (PSR sort gate)	low polyreactivity
QVQLVESGGGLVQAGGSLRLSCAASGRIFKRNAMGWYRQAPGKERELVAAISYSGGSTYYADSVKGRFTISRDNAKNTVYLQMNSLKPEDTAVYYCAVDRYPTGITKYDYWGQGTQVTVSS	polyreactivity (PSR sort gate)	high polyreactivity
QVQLVESGGGLVQAGGSLRLSCAASGSIFSSYAMGWYRQAPGKEREFVAAISWGGGSTYYADSVKGRFTISRDNAKNSVYLQMNSLKPEDTAVYYCAVETWLYPYDYWGQGTQVTVSS	polyreactivity (PSR sort gate)	high polyreactivity
QVQLVESGGRLVQARGSLRLICAASGLIIAYYTMGWYRQAPGKEREFVAVIDWIGVSTYYADSVKGRFTISRDNAKNTVYLQMNSLKPEDTAVYYCNADNAFPSPKSSLDYWGQGTQVTVSS	polyreactivity (PSR sort gate)	low polyreactivity
QVQLVDSGGGLVQAGGRLRISSAASGRISQGNAMGWYRQAPGKERELVAGISRSGGSTYYADSVKGRFTISRDNAKKTVYLQMNSLKPEDTAVYYCAARYYWRGYYWGQGTQVTVSS	polyreactivity (PSR sort gate)	high polyreactivity

---

METHOD NOTES: yeast display, Sf9 membrane polyspecificity reagent, FACS + sequencing; frameworks hold sequencing errors
QUANTITY: polyreactivity (PSR sort gate)

SEQUENCE INPUT	RESULT VALUE
QDQLVESGGGLVQAGGSLRLSCADYGINFYSYAMGWYRQAPGKEREFVAAISTGSSTNYADSVKGRFTISRDNAKNNVYLQMISLKPEDTAVYYCAKSTAVKPYAYRESGFIYDYWGQGTQLTVSS	low polyreactivity
QVQLVESGGGLVQAGGSLRLSCAASGYTFRYYAMGWYRQAHGKERELVAAITSSTSSTYYADSVKGRFTISRDNAKNTVYLQMNSLKPEDTAVYYCNRVWSTSMDYWGEGTQVTVSS	high polyreactivity
QVQLVESVGGLVQAGGSLRLSCAASGSTFHRNTMGWDRQAPGKERELVAGISLRGVRTYYADSVKGRFTISRDKAKNTVYLQMNSLKPEDTAVYYCAAGCPYTRNFKLGYWGQGTQVTVSS	high polyreactivity
QVQLVESGGGLVQAGGSLRLSCAASGSIFDDYAMGWYRQAPGKERELVAAISWSGGRPYYADSVKGRFTNSRDNAKNTVYLPMNSLKPEDTAVYYCAATTGVRSRRYYYWVQGTQVTVSS	low polyreactivity
QVQLVESGGGLVQAGGSLRLSCAASGITFYRYAMGWYRQAPGKERELVAAIRGGGASTYYADSVKGRFTISRDNAKNTVYLQMNSLKPEDTAVYYCAARAARSITNGYWGQGTQVTVSS	high polyreactivity
QVQLVESGGGLVQAGGSLRLSCAASGRTFAVNVMGWYIPAPGKERELVAAIDFDDGITYYADSVKGRFTISRDNAKNTVYLQMNSLKPEDTAVYYCAAEFVYFGSDYYYWGQGTQVTVSS	high polyreactivity
QVQLVESGGGLVQAGGSLRLSCAASGSIFAAYAMGWYRQAPGKERELVAAISLDDGSTYADSVKGRFTISRDNAKNTVYLQMNSLKPEDTAVYYCNARYKSRLYPRYDYWGQGTQVTVSS	high polyreactivity
QVQLVESGGGLVQAGGSLRLSCAASGRTFYKNAMGWYRQAPGKERELVAAISYGGGSTYYADSVKGRFTISRDNAKNTVYLQMISLKPEDTAVYYCATQLPFRKPWHDYWGQGTQVTVSS	high polyreactivity
QVQLVESGGGLVQAGGSLRLSCAASGFTFSNYAMGWYRQAPGKEREFVAAISGTGGSTYYADSVKGRFTISRDNAKNTVYLQMNSLKPEDTAVYYCARRRTYPPGRYYYWGQGTQVTVSS	high polyreactivity
QVQLVESGGGLVHAGGSLRLSCAASGRTFSYYTMAWYRQAPGKERELVAAISGRGGSTYYADSVKGRFTISRDNAKNTVYLQMNSLKPEDTAVYYCNVVKQYLGGVPDFDYWGQGTQVTVSS	low polyreactivity
QVMLVESGGGLVQAGGSLRLSCAASGSIFKSNAMGWYRQAPGKERELVAAITRSGGSTYYADSVKGRFTISRDNAKYTVYLQMNSLKPEDTAVYYCARRPGKGNNYWGKGTQVTVSS	high polyreactivity

The measured values listed here are drawn from the nanobody polyreactivity screen of Harvey et al. (2022).
